Reference source for all entries: patent US20240317735A1

Measured on: human TLR8 (Homo sapiens, UniProt Q9NR97)
Sequence (Q9NR97 27-1041): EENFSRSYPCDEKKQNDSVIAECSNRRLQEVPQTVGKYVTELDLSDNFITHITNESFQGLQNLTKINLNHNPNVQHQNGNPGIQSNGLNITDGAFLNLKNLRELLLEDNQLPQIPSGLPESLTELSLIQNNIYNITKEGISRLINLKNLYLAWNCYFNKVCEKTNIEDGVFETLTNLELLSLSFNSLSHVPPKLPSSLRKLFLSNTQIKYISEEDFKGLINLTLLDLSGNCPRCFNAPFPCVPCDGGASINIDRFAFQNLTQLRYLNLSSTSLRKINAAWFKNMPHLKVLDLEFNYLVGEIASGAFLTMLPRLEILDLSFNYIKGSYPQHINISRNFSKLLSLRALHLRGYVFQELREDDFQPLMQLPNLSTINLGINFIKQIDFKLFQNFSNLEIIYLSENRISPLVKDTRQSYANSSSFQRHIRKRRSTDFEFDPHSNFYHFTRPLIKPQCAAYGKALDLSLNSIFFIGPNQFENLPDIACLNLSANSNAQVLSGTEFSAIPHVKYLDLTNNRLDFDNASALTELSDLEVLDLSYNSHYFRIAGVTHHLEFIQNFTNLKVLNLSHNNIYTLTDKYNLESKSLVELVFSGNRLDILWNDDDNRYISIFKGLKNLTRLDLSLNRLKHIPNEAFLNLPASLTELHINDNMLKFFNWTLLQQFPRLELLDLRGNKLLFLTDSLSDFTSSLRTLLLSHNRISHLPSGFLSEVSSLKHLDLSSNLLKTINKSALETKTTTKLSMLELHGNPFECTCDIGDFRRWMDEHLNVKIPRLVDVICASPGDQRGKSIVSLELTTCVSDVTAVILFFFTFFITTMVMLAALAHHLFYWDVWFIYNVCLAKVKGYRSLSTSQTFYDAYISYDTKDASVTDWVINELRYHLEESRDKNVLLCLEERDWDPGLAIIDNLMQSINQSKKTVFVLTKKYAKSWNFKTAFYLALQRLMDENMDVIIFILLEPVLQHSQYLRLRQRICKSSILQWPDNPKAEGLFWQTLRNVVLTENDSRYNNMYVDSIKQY
Assay name: HEK293-Blue-hTLR-8 cells assay (SEAP reporter, R848 stimulation)
Test parameters: HEK293-Blue-hTLR8 cells, R848, 20 hrs; read-out: HEK/hTLR8 IC50
In this section we review reported IC50 values for a set of compounds.

// below: answered compounds
C[C@H]1CN(c2ccnc3c2cnn3C)Cc2ccc(OC[C@@H]3CNCCN3C)cc21 [Example 44]: 5 nM
Cc1cc(N2Cc3ccc(N4CCNCC4)nc3[C@@H](C)C2)c2cnn(C)c2n1 [Example 66]: 1 nM
C[C@H]1CN(c2ccnc3c2cnn3C)Cc2ccc(N3CC4(CCNC4)CC3=O)cc21 (some centres unmarked) [Example 52]: 3 nM

Given C[C@H]1CN(c2ccnc3c2cnn3C)Cc2ccc(N3CC4(CCNC4)OC3=O)cc21 (some centres unmarked) [Example 35] , state its recorded IC50.
14 nM

Given C[C@H]1CN(c2ccnc3c2cnn3C)Cc2ccc(OC[C@@H]3CNCCN3)cc21 [Example 19] , state its recorded IC50.
4 nM

Given Cc1cc(N2Cc3ccc(N4CCC(O)(CN(C)C)CC4)nc3[C@@H](C)C2)c2cnn(C)c2n1 [Example 61] , state its recorded IC50.
0.5 nM

Given Cc1cc(N2Cc3cnc(O[C@@H]4C[C@H]5CNCCN5C4)cc3[C@@H](C)C2)c2cnn(C)c2n1 [Example 76] , state its recorded IC50.
16 nM

Given Cc1cc(N2Cc3ccc(N4CC5(CNCCO5)C4)nc3[C@@H](C)C2)c2cnn(C)c2n1 [Example 68] , state its recorded IC50.
17 nM
